The reported numbers originate from paper PMC5011342.

Test system: expanded OPCs
Experiment: cells
Conditions: alamarBlue viability of expanded OPCs, compound at 10 µM, relative to DMSO control
10 µM (% DMSO) reference
Reply numerically in % DMSO, unit not repeated.

Molecule	Measured on	10 µM (% DMSO)
Cc1cnc(NC(=O)C2=C(O)c3ccccc3S(=O)(=O)N2C)s1 [Meloxicam]	expanded OPCs	86.1
Cc1cn([C@H]2C=C[C@@H](CO)O2)c(=O)[nH]c1=O [Stavudine]	expanded OPCs	101.2
COc1c(N2CCNC(C)C2)c(F)cc2c(=O)c(C(=O)O)cn(C3CC3)c12 (centres unmarked) [Gatifloxacin]	expanded OPCs	96.4
CC[C@H]1OC(=O)[C@H](C)[C@@H](O[C@H]2C[C@@](C)(OC)[C@@H](O)[C@H](C)O2)[C@H](C)[C@@H](O[C@@H]2O[C@H](C)C[C@H](N(C)C)[C@H]2O)[C@](C)(O)C[C@@H](C)CN(C)[C@H](C)[C@@H](O)[C@]1(C)O [Azithromycin]	expanded OPCs	25.1
c1ccc(CC2=NCCN2)cc1 [Tolazoline]	expanded OPCs	86.6

Prompt: Find 10 µM (% DMSO) (expanded OPCs) for the entry Cc1onc(-c2ccccc2)c1C(=O)N[C@@H]1C(=O)N2[C@@H]1SC(C)(C)[C@@H]2C(=O)O [Oxacillin]
Completion: 93.4

Prompt: Short answer please: 10 µM (% DMSO), expanded OPCs, entry CCOc1ccc2ccccc2c1C(=O)N[C@@H]1C(=O)N2[C@@H]1SC(C)(C)[C@@H]2C(=O)O [Nafcillin]
Completion: 90.0

Prompt: For expanded OPCs, provide 10 µM (% DMSO) of CCn1cc(C(=O)O)c(=O)c2ccc(C)nc21 [Nalidixic Acid] please.
Completion: 92.5

Prompt: Find 10 µM (% DMSO) (expanded OPCs) for the entry Oc1c(Cl)cc(Cl)c2cccnc12 [Chloroxine]
Completion: 8.9

Prompt: Requested read-out 10 µM (% DMSO), target or system expanded OPCs, entry Cc1ccc(Cl)c(Nc2ccccc2C(=O)O)c1Cl [Meclofenamic acid]
Completion: 93.6

Prompt: # query: 10 µM (% DMSO) | item C=C(CC)C(=O)c1ccc(OCC(=O)O)c(Cl)c1Cl [Ethacrynic Acid] | system: expanded OPCs
Completion: 11.2

Prompt: Quick check: 10 µM (% DMSO) on expanded OPCs, item NC(Cc1cc(I)c(Oc2cc(I)c(O)c(I)c2)c(I)c1)C(=O)O (centres unmarked) [thyroxine, reference compound] ?
Completion: 120.0

Prompt: Param readout= 10 µM (% DMSO); system= expanded OPCs; entry= CN(C)C(=O)C(CCN1CCC(O)(c2ccc(Cl)cc2)CC1)(c1ccccc1)c1ccccc1 [Loperamide] ; returns value.
Completion: 11.4

Prompt: // lookup 10 µM (% DMSO) | system=expanded OPCs | key= CN(C)CCCN1c2ccccc2CCc2ccc(Cl)cc21 [Clomipramine]
Completion: 8.7

Prompt: I'm curious: which 10 µM (% DMSO) was measured for COc1cc(Cc2cnc(N)nc2N)cc(OC)c1OC [Trimethoprim] tested on expanded OPCs?
Completion: 86.5

Prompt: Kindly state the measured 10 µM (% DMSO) obtained for O=C(O)CCCc1ccccc1 [4-Phenylbutyric acid] with expanded OPCs.
Completion: 104.6

Prompt: What reported 10 µM (% DMSO) corresponds to NCc1ccc(S(N)(=O)=O)cc1 [Mafenide] on expanded OPCs?
Completion: 86.7
